These data points were gathered from PubChem BioAssay (NCI).

- Test system: IGROV1 ovarian
- method.summary: NCI tumour cell line growth inhibition, 48 h; in the data active = GI50 below about 0.43 µM; inactive = the rest
Labels: active, inactive

INSERT INTO assay_data (molecule, label_class) VALUES
  ('CCC[CH2][Sn]1([CH2]CCC)[O]CC([CH2][Sn]([c]2ccccc2)([c]2ccccc2)[c]2ccccc2)[O]1 (stereo not given)', 'inactive'),
  ('COc1cccc2cc(N(C)c3nc(C)nc4ccsc34)ccc12', 'active'),
  ('C=C(CN(CCN1CCOCC1)CC(=C)c1ccc(C(=O)Nc2ccccc2N)cc1)c1ccc(C(=O)Nc2ccccc2N)cc1', 'inactive'),
  ('O=C1C(Nc2cccc(O)c2)=C(Sc2ccc(Cl)cc2)C(=O)N1Cc1ccccc1', 'inactive'),
  ('OCCCCC#Cc1ccccc1C#Cc1cccs1', 'inactive');

====

- Test system: T-47D breast
- method.summary: NCI tumour cell line growth inhibition, 48 h
Where a SMILES comes first, the peptide text is derived from it. Side-chain parts run from the residue outwards. The star is where a group is joined. Cbz = O=C(OCc1ccccc1)*; Boc = CC(C)(C)OC(=O)*
Below, each entry is listed alongside its reported TGI.
parameter.measured: TGI

INSERT INTO results (compound, value_reported) VALUES
  ('CC(C)CC(NC(=O)OCc1ccccc1)C(=O)NCCCCC(NC(=O)C(CCCCNC(=O)C(CC(C)C)NC(=O)OCc1ccccc1)NC(=O)C(CCCCNC(=O)C(CC(C)C)NC(=O)OCc1ccccc1)NC(=O)C(CCCCNC(=O)C(CC(C)C)NC(=O)OCc1ccccc1)NC(=O)OC(C)(C)C)C(=O)O (stereo unspecified) (Boc-K([Leu-Cbz])K([Leu-Cbz])K([Leu-Cbz])K([Leu-Cbz])-OH; configuration not given here)', '> 25 µM'),
  ('CC1(C)CC(=O)C2=C(C1)N(c1ccccc1)C1(O)C=CC(=O)C3=C(O)c4ccccc4C(=O)C321 (stereo unspecified)', '> 100 µM'),
  ('CCN(CC)CCNC(=O)c1cc2cc(NC(=O)c3cc4cc(NC(=O)c5cc6cc([N+](=O)[O-])ccc6[nH]5)ccc4[nH]3)ccc2[nH]1', '> 100 µM'),
  ('O=C(Nc1ccc(Cl)cc1)c1cc(S(=O)(=O)NC2=NC(c3ccccc3)c3cc(Cl)ccc3N2)c(SSc2cc(Cl)c(C(=O)Nc3ccc(Cl)cc3)cc2S(=O)(=O)NC2=NC(c3ccccc3)c3cc(Cl)ccc3N2)cc1Cl (stereo unspecified)', '> 100 µM'),
  ('COC(=O)C1=C2CO[C@@H]3C[C@H]4C(C)(C)CCC[C@]4(C)C(=CC1)[C@]23C', '> 100 µM'),
  ('Cc1sc2c(c1C)C(c1ccc(Cl)cc1)=N[C@@H](CC(=O)Nc1ccc(O)cc1)c1nnc(C)n1-2', '28.2 µM'),
  ('CCCCCCCCCCCCCCCCCCNC(=S)/N=C/c1c(O)cc(C)oc1=O', '> 100 µM'),
  ('CC(C)=CCC[C@@H](C)C1=C(O)C(Nc2ccccc2F)=C(C)C(=O)C1=O', '57.7 µM'),
  ('COc1cc(C2c3cc4c(cc3OC(N3CCOCC3)C2C)OCO4)cc(OC)c1OC (stereo unspecified)', '> 100 µM'),
  ('O=C1CSC(c2c(O)ccc3ccccc23)N1n1c(=S)[nH]nc(/C=C/c2c(O)ccc3ccccc23)c1=O (stereo unspecified)', '15.1 µM'),
  ('Cc1ccc(N2C(=O)C(O)=C(C(=O)C(C)(C)C)C2c2ccc([N+](=O)[O-])cc2)cc1 (stereo unspecified)', '52.5 µM'),
  ('CC(C)c1ccc(O)c(O)c(=O)c1 (tested in a mixture with another compound)', '> 68.6 µM'),
  ('CC1=NN(c2cccc(Cl)c2)C2(C1)SCC(=O)N2c1nc2ccccc2s1 (stereo unspecified)', '84.4 µM'),
  ('CCOC(=O)c1ccc2c(=O)n3c(C(=O)OCC)ccc3c(=O)n12', '> 100 µM'),
  ('O=C(Nn1c2c(sc1=NC1CC1)C(=O)c1ccccc1C2=O)c1cc2ccc1CCc1ccc(cc1)CC2', '14.4 µM'),
  ('CC(C)(CO)NC(=O)c1cccc(C(=O)NC(C)(C)CO)c1Br', '> 100 µM');
